- Tested on: 996289-038-R-J1-PDC complex spheroid viability;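 note: spheroids exposed to the agents for 7 days before readout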
- assay overview: Anticancer human tumor 996289-038-R-J1-PDC patient-derived colon adenocarcinoma cell line growth inhibition [CLK]
- measurement conditions: second compound 3.16 µM; first compound 0.00316 µM; active compounds read low
readout: viability, T/C (%)
Write the value in % as a bare number.

# input What does the data say about its viability, T/C? Entry: COc1c(OCCCN2CCOCC2)ccc2c3n(c(=NC(=O)c4cnc(N)nc4)nc12)CCN3 + CNC(=O)c1ccc(Nc2nc(OC3CCCC3)c3c(-c4ccc5nc(C)oc5c4)c[nH]c3n2)c(OC)c1
# output 51.2

# input Query (compound): CCN1CCN(Cc2ccc(Nc3ncc(F)c(-c4cc(F)c5nc(C)n(C(C)C)c5c4)n3)nc2)CC1 + CNC(=O)c1ccc(Nc2nc(OC3CCCC3)c3c(-c4ccc5nc(C)oc5c4)c[nH]c3n2)c(OC)c1 ; field requested: viability, T/C
# output 62.5

# input Please look up its viability, T/C: Cn1ncnc1[C@H]1c2n[nH]c(=O)c3cc(F)cc(c23)N[C@@H]1c1ccc(F)cc1 + CN1CCN(c2cc(C(=O)Nc3cc4cc(-c5cnn(C)c5)ccc4cn3)ccn2)CC1
# output 1.05

# input For CCN1CCN(Cc2ccc(Nc3ncc(F)c(-c4cc(F)c5nc(C)n(C(C)C)c5c4)n3)nc2)CC1 + CN1CCN(c2cc(C(=O)Nc3cc4cc(-c5cnn(C)c5)ccc4cn3)ccn2)CC1 , what is its reported viability, T/C?
# output 1.14

# input What value of measured viability, T/C is listed for CCc1c2c(nc3ccc(O)cc13)-c1cc3c(c(=O)n1C2)COC(=O)[C@]3(O)CC + CN1CCN(c2cc(C(=O)Nc3cc4cc(-c5cnn(C)c5)ccc4cn3)ccn2)CC1 ?
# output 1.13

# input Record request: viability, T/C value, item CCc1c2c(nc3ccc(O)cc13)-c1cc3c(c(=O)n1C2)COC(=O)[C@]3(O)CC + CNC(=O)c1ccc(Nc2nc(OC3CCCC3)c3c(-c4ccc5nc(C)oc5c4)c[nH]c3n2)c(OC)c1
# output 55.5

# input Query (compound): COc1c(OCCCN2CCOCC2)ccc2c3n(c(=NC(=O)c4cnc(N)nc4)nc12)CCN3 + CN1CCN(c2cc(C(=O)Nc3cc4cc(-c5cnn(C)c5)ccc4cn3)ccn2)CC1 ; field requested: viability, T/C
# output 0.97

# input Give its viability, T/C value. Item: Cn1ncnc1[C@H]1c2n[nH]c(=O)c3cc(F)cc(c23)N[C@@H]1c1ccc(F)cc1 + CNC(=O)c1ccc(Nc2nc(OC3CCCC3)c3c(-c4ccc5nc(C)oc5c4)c[nH]c3n2)c(OC)c1
# output 59
